Molecular target: GABA-A receptor; anion channel (Bos taurus) (UniProt P10063+P08220+P20237+P08219+P10064+P22300)
Test: Relative binding to GABA-A benzodiazepine receptor in the presence and absence of GABA (GABA shift)
Type: protein-complex assay
ASSAY METRIC: Ratio

CHEM SMILES	RESULT
CCOC(=O)[C@H](C)NC(=O)C(=O)c1c[nH]c2ccc(Cl)cc12	0.9
CCOC(=O)[C@@H](C)NC(=O)C(=O)c1c[nH]c2ccc([N+](=O)[O-])cc12	0.79
CCOC(=O)[C@@H](C)NC(=O)C(=O)c1c[nH]c2ccc(Cl)cc12	0.92
CCOC(=O)[C@@H](C)NC(=O)C(=O)c1c[nH]c2ccc(Br)cc12	0.85
CCOC(=O)[C@H](C)NC(=O)C(=O)c1c[nH]c2ccc([N+](=O)[O-])cc12	0.67

Could you now consider this next compound?
Query: Retrieve Ratio measured for CCOC(=O)[C@H](C)NC(=O)C(=O)c1c[nH]c2ccc(Br)cc12 and print it.
Reply: 0.78
